- experimental.protocol: log P by HPLC (OECD Guideline 117), method [b] neutral range
- Assay type: physicochemical
- recorded.conditions: reversed-phase C18 HPLC column; HPLC, neutral range, pH 7.8
measured.metric: chromatographic logP

[
  {
    "molecule": "N#Cc1cc(F)c(-n2nc(C(F)(F)F)n(C3CC3)c2=O)cc1[S+]([O-])CC(F)(F)F (stereo not drawn)",
    "experimental.result": 2.84
  },
  {
    "molecule": "COc1nn(-c2ccc(C(F)(F)F)c([S+]([O-])CC(F)(F)F)c2)c(=O)n1C (stereo not drawn)",
    "experimental.result": 2.83
  },
  {
    "molecule": "Cc1cc(F)c(-n2nnn(-c3ccc(Cl)cc3)c2=O)cc1[S+]([O-])CC(F)(F)F (stereo not drawn)",
    "experimental.result": 3.49
  },
  {
    "molecule": "CCSc1nn(-c2cc(SCC(F)(F)F)c(C)cc2F)c(=O)n1C",
    "experimental.result": 3.44
  }
]

(1) Cc1cc(F)c(-n2nnn(-c3ccc(Cl)cc3)c2=O)cc1SCC(F)(F)F
(2) CCn1ccn(-c2cc(SCC(F)(F)F)c(C)cc2F)c1=O
Query: Would you mind telling me which has the lower recorded chromatographic logP between 1 and 2 ? Write down the label attached to your selection.
Response: 2
